# TARGET SYSTEM: menin/MLL (terbium chelate-labeled menin, FITC-MBM1 peptide) (Homo sapiens, UniProt O00255, T541A)
# Construct: Menin (a.a 1-610-6xhis tag, 2.3 mg/mL in 20 mM Hepes)
# Sequence (O00255 with tags, fused parts or gaps T541A): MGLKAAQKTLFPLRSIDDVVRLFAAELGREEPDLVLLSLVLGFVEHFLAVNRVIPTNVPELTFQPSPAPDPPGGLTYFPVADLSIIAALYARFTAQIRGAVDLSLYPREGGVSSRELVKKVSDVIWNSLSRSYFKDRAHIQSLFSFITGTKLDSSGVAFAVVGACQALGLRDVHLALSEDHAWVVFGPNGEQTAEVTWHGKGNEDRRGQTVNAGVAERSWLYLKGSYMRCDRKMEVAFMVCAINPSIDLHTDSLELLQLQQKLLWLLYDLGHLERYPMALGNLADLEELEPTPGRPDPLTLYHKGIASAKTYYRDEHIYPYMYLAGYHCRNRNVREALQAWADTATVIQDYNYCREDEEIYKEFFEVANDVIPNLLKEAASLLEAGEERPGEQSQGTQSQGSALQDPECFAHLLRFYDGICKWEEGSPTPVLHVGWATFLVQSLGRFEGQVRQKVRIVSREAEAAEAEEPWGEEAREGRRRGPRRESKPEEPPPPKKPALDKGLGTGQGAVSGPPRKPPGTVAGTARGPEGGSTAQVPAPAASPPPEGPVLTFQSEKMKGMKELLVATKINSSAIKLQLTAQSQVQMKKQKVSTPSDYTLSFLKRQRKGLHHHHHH
# ASSAY COMMENT: Menin/MLL homogenous time-resolved fluorescence (HTRF) assay
# DETAILS: 30 min incubation
API: label(entry) gives Criterion met if the entry's IC50 is strictly smaller than 0.5 nM; on equality or larger values it gives Criterion not met.

Some solved entries appear below for comparison.
{"COMPOUND": "Cc1cncc2c1c(CC1CN(CC3CCOCC3)C1)cn2-c1ccc(F)cc1C(=O)N(C)C1(CO)CC1", "CLASS LABEL": "Criterion met"}
{"COMPOUND": "Cc1cncc2c1c(C[C@@H]1CN[C@@H](C)C1)cn2-c1ccc(F)cc1C(=O)N(C)C(C)C", "CLASS LABEL": "Criterion not met"}
{"COMPOUND": "Cc1cncc2c1c(C[C@H]1CCN([C@@H](C)C3CCOCC3)C1)cn2-c1ccc(F)cc1C(=O)N(C)C(C)C (single isomer, unassigned) [Compound 49b]", "CLASS LABEL": "Criterion met"}
{"COMPOUND": "Cc1cncc2c1c(CC1(C)CCN(CC3CCOCC3)C1)cn2-c1ccc(F)cc1C(=O)N(C)C(C)C (stereo not drawn)", "CLASS LABEL": "Criterion met"}
{"COMPOUND": "CC(=O)N1CCC(CN2CC[C@@H](Cc3cn(-c4ccc(F)cc4C(=O)N(C)C(C)C)c4cncc(C)c34)C2)CC1 [Compound 51]", "CLASS LABEL": "Criterion met"}

Quick check: IC50 of CC(=O)N1CCC(N2CC(Cc3cn(-c4ccc(F)cc4C(=O)N(C)C(C)C)c4cncc(C)c34)C2)C[C@@H]1C (single isomer, unassigned) [Compound 293a] under 0.5 nM? Criterion met
